Reference for the values: ChEMBL document CHEMBL2086280

# System: NFF
# ASSAY DETAILS: Cytotoxicity against human NFF cells after 6 days by SRB assay
# Format: cell-based
# MEASUREMENT CONTEXT: 144 h
Record form. Attribute: IC50. Fill in for each entry.

INSERT INTO results (molecule, experimental_result) VALUES
  ('CC(C)[C@H](O)[C@H](O)C[C@@H](C)[C@H]1[C@@H](O[C@@H]2O[C@H](CO)[C@@H](O)[C@H](O)[C@H]2O)C[C@H]2[C@@H]3CC(=O)[C@H]4C[C@@H](O[C@@H]5O[C@H](CO[C@@H]6O[C@H](CO)[C@@H](O)[C@H](O)[C@H]6O)[C@@H](O)[C@H](O)[C@H]5O)CC[C@]4(C)[C@H]3CC[C@]12C', '> 50 µg/mL');

Case CC(C)[C@H](O[C@@H]1O[C@H](C)[C@H](O)[C@H](O)[C@H]1O)[C@H](O)C[C@@H](C)[C@H]1[C@@H](O)C[C@H]2[C@@H]3C[C@@H](O)[C@H]4C[C@@H](O[C@@H]5O[C@H](CO[C@@H]6O[C@H](CO)[C@@H](O)[C@H](O)[C@H]6O)[C@@H](O)[C@H](O)[C@H]5O)CC[C@]4(C)[C@H]3CC[C@]12C [CHAMAELIROSIDE B] , NFF, IC50 recorded as > 50 µg/mL
